Quick reference for MIC among some compounds
# Tested on: Escherichia coli
# assay.name: Antibacterial activity against Escherichia coli 1356 after 20 hrs by twofold serial dilution technique
# Format: functional
# assay.setup: Escherichia coli, 1356, 20 h

Example results:
Data request: Let me know recorded MIC for COc1ccc(C(=O)/C=C/c2ccc(/C=C3/SC(=S)N(CC(=O)O)C3=O)cc2)cc1 , thanks.
Data returned: > 64 µg/mL

Data request: Let me know recorded MIC for O=C(O)CN1C(=O)/C(=C\c2ccc(/C=C/C(=O)c3ccccc3)cc2)SC1=S , thanks.
Data returned: > 64 µg/mL

Data request: Let me know recorded MIC for O=C(O)CN1C(=O)/C(=C\c2ccc(/C=C/C(=O)c3ccccc3F)cc2)SC1=S , thanks.
Data returned: > 64 µg/mL

Data request: Let me know recorded MIC for O=C(O)CN1C(=O)CSC1=S , thanks.
Data returned: > 64 µg/mL

Data request: Let me know recorded MIC for O=C(O)CN1C(=O)/C(=C\c2ccc(/C=C/C(=O)c3ccc(Cl)cc3)cc2)SC1=S , thanks.
Data returned: > 64 µg/mL

Next:
Data request: Let me know recorded MIC for O=C(O)CN1C(=O)/C(=C\c2ccc(/C=C/C(=O)c3cccc(Br)c3)cc2)SC1=S , thanks.
Data returned: > 64 µg/mL

Data request: Let me know recorded MIC for O=C(O)CN1C(=O)/C(=C\c2ccc(/C=C/C(=O)c3ccc([N+](=O)[O-])cc3)cc2)SC1=S , thanks.
Data returned: > 64 µg/mL

Data request: Let me know recorded MIC for O=C(O)CN1C(=O)/C(=C\c2ccc(/C=C/C(=O)c3ccc(F)cc3)cc2)SC1=S , thanks.
Data returned: > 64 µg/mL

Data request: Let me know recorded MIC for O=C(O)CN1C(=O)/C(=C\c2ccc(/C=C/C(=O)c3ccccc3Cl)cc2)SC1=S , thanks.
Data returned: > 64 µg/mL

Data request: Let me know recorded MIC for Cc1ccc(C(=O)/C=C/c2ccc(/C=C3/SC(=S)N(CC(=O)O)C3=O)cc2)cc1 , thanks.
Data returned: > 64 µg/mL
